The reported numbers originate from paper PMC10421376.

assay-protocol: Pharmacokinetics of five iridoids in rat plasma after oral administration of PS extract (UHPLC-ESI-MS/MS)
Assay type: in vivo, SD (Sprague Dawley) rats
experimental-conditions: male, Sprague-Dawley, in vivo; rat plasma, oral PS extract 1 g/kg, n = 6, mean ± SD; read-out: Tmax

compound: C=C[C@H]1[C@H](O[C@@H]2O[C@H](CO)[C@@H](O)[C@H](O)[C@H]2O)OC=C2C(=O)OCC[C@H]21 [Sweroside, sweroside]
readout-unit: h
Tmax: 2.1

###

assay-protocol: Pharmacokinetics of five iridoids in rat plasma after oral administration of PS extract (UHPLC-ESI-MS/MS)
Type: in vivo, SD (Sprague Dawley) rats
experimental-conditions: male, Sprague-Dawley, in vivo; rat plasma, oral PS extract 1 g/kg, n = 6, mean ± SD; read-out: Cmax

molecule: C=C[C@H]1[C@H](O[C@@H]2O[C@H](CO)[C@@H](O)[C@H](O)[C@H]2O)OC=C2C(=O)OCC[C@H]21 [Sweroside, sweroside]
Cmax / ng/mL: 63.7
